Assay system HPK1 (Homo sapiens, UniProt Q92918); read-out recorded as pIC50.
pIC50: −log10 of the molar value.

Worked examples follow.
> print(dat)
                                   compound  assayendpoint   assayresult
1  CS(=O)(=O)c1ncc(Nc2ccc(N3CCNCC3)cn2)c2c1CNC2=O [Compound I-5]          pIC50  5.30 to 6.00
2  CNc1cc(-c2ccc(Nc3ccc(N4CCN(C)CC4)cn3)c3c2CNC3=O)ncn1 [Compound I-48]          pIC50        > 6.00
3  COc1ccc(-c2ncc(Nc3ccc(N4CCNCC4)cn3)c3c2CNC3=O)cc1 [Compound I-6]          pIC50  5.30 to 6.00

Turning now to a further compound:
Field: pIC50 (HPK1 (Homo sapiens, UniProt Q92918)). Entry: CNc1cc(-c2ccc(Nc3ccc(N4CCN(C)CC4)cn3)c3c2CNC3=O)ccn1 [Compound I-52]
> 6.00

====

Molecular target: HPK1 (Homo sapiens)
Sequence (Q92918 whole entry): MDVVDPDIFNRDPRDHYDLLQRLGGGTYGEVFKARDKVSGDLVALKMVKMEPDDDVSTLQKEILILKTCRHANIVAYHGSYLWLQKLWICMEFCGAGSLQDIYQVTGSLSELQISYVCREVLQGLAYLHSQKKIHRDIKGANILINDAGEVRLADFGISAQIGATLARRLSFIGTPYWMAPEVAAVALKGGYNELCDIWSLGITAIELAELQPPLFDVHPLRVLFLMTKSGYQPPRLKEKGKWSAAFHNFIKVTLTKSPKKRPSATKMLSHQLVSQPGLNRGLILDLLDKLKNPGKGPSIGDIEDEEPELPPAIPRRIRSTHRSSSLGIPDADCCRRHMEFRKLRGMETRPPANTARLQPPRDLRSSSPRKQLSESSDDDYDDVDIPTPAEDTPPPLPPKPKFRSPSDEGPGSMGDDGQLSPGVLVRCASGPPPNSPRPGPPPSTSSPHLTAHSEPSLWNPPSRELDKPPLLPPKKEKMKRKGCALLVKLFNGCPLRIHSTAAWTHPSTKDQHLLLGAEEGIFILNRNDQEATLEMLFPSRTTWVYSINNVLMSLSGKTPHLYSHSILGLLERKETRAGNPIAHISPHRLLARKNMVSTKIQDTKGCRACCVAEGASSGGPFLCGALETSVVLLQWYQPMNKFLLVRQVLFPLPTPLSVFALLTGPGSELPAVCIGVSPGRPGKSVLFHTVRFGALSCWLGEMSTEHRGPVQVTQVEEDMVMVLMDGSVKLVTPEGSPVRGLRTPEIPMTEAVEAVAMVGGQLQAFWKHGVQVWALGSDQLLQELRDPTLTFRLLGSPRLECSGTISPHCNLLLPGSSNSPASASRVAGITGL
pIC50: −log10 of the molar value.
assayEndpoint: pIC50

> print(dat)
                                   compound   assayresult
1  CC(=O)N1CCN(c2cc(-c3ccc(Nc4ccc(N5CCN(C)CC5)cn4)c4c3CNC4=O)ccn2)CC1  5.30 to 6.00
2  COc1cccc(-c2ncc(Nc3ccc(N4CCNCC4)cn3)c3c2CNC3=O)c1OC  5.30 to 6.00
3  CN1CCN(c2ccc(Nc3ccc(-c4ccncc4N4CC5CCC(C4)O5)c4c3C(=O)NC4)nc2)CC1  5.30 to 6.00
4  CN1CCN(c2ccc(Nc3ccc(-c4ccnc(C#CC5CCCO5)c4)c4c3C(=O)NC4)nc2)CC1 (stereo not shown)        > 6.00
5  CN1CCN(c2ccc(Nc3ccc(-c4ccnc(OCC(=O)N5CCCCC5)c4)c4c3C(=O)NC4)nc2)CC1        > 6.00

Field: pIC50 (HPK1 (Homo sapiens)). Entry: `CN1CCN(c2ccc(Nc3ccc(-c4ccnc(N(C)C)c4)c4c3C(=O)NC4)nc2)CC1`
> 6.00

Field: pIC50 (HPK1 (Homo sapiens)). Entry: `O=C1NCc2c(C3CC3)ncc(Nc3ccc(N4CCNCC4)cn3)c21`
5.30 to 6.00

Field: pIC50 (HPK1 (Homo sapiens)). Entry: `CN1CCN(c2ccc(Nc3ccc(-c4ccnc(N5CC6CCC(C5)O6)n4)c4c3C(=O)NC4)nc2)CC1`
5.30 to 6.00

Field: pIC50 (HPK1 (Homo sapiens)). Entry: `O=C1NCc2c(-c3ncco3)ncc(Nc3ccc(N4CCNCC4)cn3)c21`
5.30 to 6.00

Field: pIC50 (HPK1 (Homo sapiens)). Entry: CN1CCN(c2ccc(Nc3ccc(-c4ccnc(C5CCCOC5)c4)c4c3C(=O)NC4)nc2)CC1 (stereo not shown)
5.30 to 6.00

Field: pIC50 (HPK1 (Homo sapiens)). Entry: `Cn1cnc(-c2ccccc2)c1-c1ccc(Nc2ccc(N3CCNCC3)cn2)c2c1CNC2=O`
> 6.00

Field: pIC50 (HPK1 (Homo sapiens)). Entry: `CN1CCN(c2ccc(Nc3cnc(-c4ccncc4)c4c3C(=O)NC4)nc2)CC1`
5.30 to 6.00

Field: pIC50 (HPK1 (Homo sapiens)). Entry: `CN1CCN(c2ccc(Nc3ccc(-c4ccnc(C#CC5CCCCC5)c4)c4c3C(=O)NC4)nc2)CC1`
> 6.00

Field: pIC50 (HPK1 (Homo sapiens)). Entry: `CC#Cc1cc(-c2ccc(Nc3ccc(N4CCN(C)CC4)cn3)c3c2CNC3=O)ccn1`
> 6.00

Field: pIC50 (HPK1 (Homo sapiens)). Entry: `CN1CCN(c2ccc(Nc3ccc(-c4cncn4C)c4c3C(=O)NC4)nc2)CC1`
> 6.00

Field: pIC50 (HPK1 (Homo sapiens)). Entry: `CN1CCN(c2ccc(Nc3ccc(-c4ccncn4)c4c3C(=O)NC4)nc2)CC1`
> 6.00
